# method: Blood levels in mice after oral or subcutaneous administration, assayed by biological β-lactamase inhibition-zone technique
# Type: in vivo
# test_conditions: mouse, blood; oral administration, 20 mg/kg, 90 mins after administration, average for 10 mice
endpoint_name: concentration at 1.5 h (ng/mL)
Give bare numbers, in ng/mL.

Documented concentration at 1.5 h of O=C(O)C1C(=CCOCCCl)OC2CC(=O)N21 (stereo not shown) [Example 4, Lithium 9-0-(2-chloroethyl)clavulanate] : 3910

----------
# method: Blood levels in mice after oral or subcutaneous administration, assayed by biological β-lactamase inhibition-zone technique
# Type: in vivo
# test_conditions: mouse, blood, sc; subcutaneous administration, 10 mg/kg, 60 mins after administration, average for 5 mice
# Protocol: The compound of Example 4 was administered either orally (by gastric lavage) or subcutaneously as a solution to groups of mice. At intervals after administration, 5 mice which had received the compound subcutaneously and 10 mice which had received the compound orally were sacrificed, and blood collected from the axillary region. The blood was assayed for content of compound 4 using a biological β-lactamase inhibition-zone assay technique. […]
endpoint_name: concentration at 1 h (ng/mL)
Numbers only, in ng/mL.

Briefly, concentration at 1 h measured for O=C(O)C1C(=CCOCCCl)OC2CC(=O)N21 (stereo not shown) [Example 4, Lithium 9-0-(2-chloroethyl)clavulanate] : 5200

----------
# method: Blood levels in mice after oral or subcutaneous administration, assayed by biological β-lactamase inhibition-zone technique
# Format: in vivo
# test_conditions: mouse, blood, sc; subcutaneous administration, 10 mg/kg, 10 mins after administration, average for 5 mice
endpoint_name: concentration at 10 min (ng/mL)
Numbers only, in ng/mL.

Documented concentration at 10 min of O=C(O)C1C(=CCOCCCl)OC2CC(=O)N21 (stereo not shown) [Example 4, Lithium 9-0-(2-chloroethyl)clavulanate] : 22800

----------
# method: Blood levels in mice after oral or subcutaneous administration, assayed by biological β-lactamase inhibition-zone technique
# Assay type: in vivo
# test_conditions: mouse, blood; oral administration, 20 mg/kg, 60 mins after administration, average for 10 mice
endpoint_name: concentration at 1 h (ng/mL)
Answers are plain numbers, in ng/mL.

Quick note, concentration at 1 h for O=C(O)C1C(=CCOCCCl)OC2CC(=O)N21 (stereo not shown) [Example 4, Lithium 9-0-(2-chloroethyl)clavulanate] landed at 7420

----------
# method: Blood levels in mice after oral or subcutaneous administration, assayed by biological β-lactamase inhibition-zone technique
# Assay type: in vivo
# test_conditions: mouse, blood; oral administration, 20 mg/kg, 15 mins after administration, average for 10 mice
# Procedure: The compound of Example 4 was administered either orally (by gastric lavage) or subcutaneously as a solution to groups of mice. At intervals after administration, 5 mice which had received the compound subcutaneously and 10 mice which had received the compound orally were sacrificed, and blood collected from the axillary region. The blood was assayed for content of compound 4 using a biological β-lactamase inhibition-zone assay technique. […]
endpoint_name: concentration at 0.25 h
Include the unit after the number when you answer.

Note to self: concentration at 0.25 h recorded for O=C(O)C1C(=CCOCCCl)OC2CC(=O)N21 (stereo not shown) [Example 4, Lithium 9-0-(2-chloroethyl)clavulanate] was 16600 ng/mL

----------
# method: Blood levels in mice after oral or subcutaneous administration, assayed by biological β-lactamase inhibition-zone technique
# Assay type: in vivo
# test_conditions: mouse, blood, sc; subcutaneous administration, 10 mg/kg, 20 mins after administration, average for 5 mice
endpoint_name: concentration at 20 min (ng/mL)
Numbers only, in ng/mL.

Lab book: concentration at 20 min of O=C(O)C1C(=CCOCCCl)OC2CC(=O)N21 (stereo not shown) [Example 4, Lithium 9-0-(2-chloroethyl)clavulanate] noted as 17300

----------
# method: Blood levels in mice after oral or subcutaneous administration, assayed by biological β-lactamase inhibition-zone technique
# Type: in vivo
# test_conditions: mouse, sc; subcutaneous administration, 10 mg/kg, mice, blood
# Procedure: The compound of Example 4 was administered either orally (by gastric lavage) or subcutaneously as a solution to groups of mice. At intervals after administration, 5 mice which had received the compound subcutaneously and 10 mice which had received the compound orally were sacrificed, and blood collected from the axillary region. The blood was assayed for content of compound 4 using a biological β-lactamase inhibition-zone assay technique. […]
endpoint_name: AUC
Enter the number, and then the unit.

The reported AUC of the molecule O=C(O)C1C(=CCOCCCl)OC2CC(=O)N21 (stereo not shown) [Example 4, Lithium 9-0-(2-chloroethyl)clavulanate] was 15100 ng·h/mL

----------
# method: Blood levels in mice after oral or subcutaneous administration, assayed by biological β-lactamase inhibition-zone technique
# Type: in vivo
# test_conditions: mouse; oral administration, 20 mg/kg, mice, blood
endpoint_name: AUC
Be sure to follow the number with its unit.

Item: O=C(O)C1C(=CCOCCCl)OC2CC(=O)N21 (stereo not shown) [Example 4, Lithium 9-0-(2-chloroethyl)clavulanate] | AUC: 14300 ng·h/mL

----------
# method: Blood levels in mice after oral or subcutaneous administration, assayed by biological β-lactamase inhibition-zone technique
# Format: in vivo
# test_conditions: mouse, blood; oral administration, 20 mg/kg, 30 mins after administration, average for 10 mice
endpoint_name: concentration at 0.5 h (ng/mL)
One number for each entry, in ng/mL.

Looking up O=C(O)C1C(=CCOCCCl)OC2CC(=O)N21 (stereo not shown) [Example 4, Lithium 9-0-(2-chloroethyl)clavulanate] , I found its concentration at 0.5 h recorded as 10500

----------
# method: Blood levels in mice after oral or subcutaneous administration, assayed by biological β-lactamase inhibition-zone technique
# Format: in vivo
# test_conditions: mouse, blood, sc; subcutaneous administration, 10 mg/kg, 45 mins after administration, average for 5 mice
endpoint_name: concentration at 0.75 h
# output: number + unit

get_value(item= O=C(O)C1C(=CCOCCCl)OC2CC(=O)N21 (stereo not shown) [Example 4, Lithium 9-0-(2-chloroethyl)clavulanate] , readout=concentration at 0.75 h) returns 7700 ng/mL

----------
# method: Blood levels in mice after oral or subcutaneous administration, assayed by biological β-lactamase inhibition-zone technique
# Assay type: in vivo
# test_conditions: mouse, blood, sc; subcutaneous administration, 10 mg/kg, 30 mins after administration, average for 5 mice
endpoint_name: concentration at 0.5 h
Could you kindly put the unit after your number?

Consider O=C(O)C1C(=CCOCCCl)OC2CC(=O)N21 (stereo not shown) [Example 4, Lithium 9-0-(2-chloroethyl)clavulanate] . Its measured concentration at 0.5 h is 13300 ng/mL
